# targetEntity: Motilin Receptor (Oryctolagus cuniculus)
# Construct: The muscle tissue was homogenized in 10 volumes of 50 mM Tris-Cl; from tissue; host or cells: rabbit colon smooth muscle, crude membrane homogenate
# procedureDetails: Motilin receptor binding, rabbit colon membranes, 125I porcine motilin
# Set-up: dose or concentration left out as unconfirmed
# condition: rabbit colon membranes
# Procedure: Rabbit colon was removed, dissected free from the mucosa and serosa, and diced into small pieces. […] The pellet was washed twice with 1 ml of cold saline, the supernatant was aspirated, and the pellet at the bottom of the tube counted in a gamma counter. Non-specific binding was determined by the inclusion of 1 mM of unlabeled motilin. IC50 values were determined from Kaleidograph curves.
Examples of compounds with documented Rabbit Colon % Inh follow.
readoutType: Rabbit Colon % Inh (%)

O=C(c1ccc(F)cc1)N(CC1CCCC(N(Cc2cccc(F)c2)C(=O)C(Cl)(Cl)Cl)C1)c1cccc(OCCN2CCOCC2)c1 (stereo not drawn) [compound 100] | 78
CC(C)(C)CC(=O)N(Cc1cccc(Cl)c1)C1CCCC(CN(C(=O)c2ccc(F)cc2)c2cccc(OCCN3CCOCC3)c2)C1 (stereo not drawn) [compound 246] | 73
O=C(c1ccc(F)cc1)N(CC1CCCC(N2C(=O)c3ccc4ccc(F)cc4c3C2=O)C1)c1cccc(OCCN2CCOCC2)c1 (stereo not drawn) [compound 261] | 0
CN1CCCC1CCOc1cccc(N(CC2CCCC(N(Cc3cccc(Cl)c3)C(=O)C(Cl)(Cl)Cl)C2)C(=O)c2ccc(F)cc2)c1 (racemic) [compound 236] | 53
CC(C)(C)c1ccc2c(c1)C(=O)N(C1CCCC(CN(C(=O)c3ccc(F)cc3)c3cccc(OCCN4CCOCC4)c3)C1)C2=O (stereo not drawn) [compound 250] | 0
Cc1ccc2c(c1)C(=O)N(C1CCCC(CN(C(=O)c3ccc(F)cc3)c3cccc(OCCN4CCOCC4)c3)C1)C2=O (stereo not drawn) [compound 253] | 30

---

# targetEntity: Motilin Receptor (Oryctolagus cuniculus)
# Construct: The muscle tissue was homogenized in 10 volumes of 50 mM Tris-Cl; from tissue; host or cells: rabbit colon smooth muscle, crude membrane homogenate
# procedureDetails: Motilin receptor binding, rabbit colon membranes, 125I porcine motilin
# Parameters: dose or concentration left out as unconfirmed
# condition: rabbit colon membranes
The threshold is inclusive: Rabbit Colon % Inh of exactly 20% counts as label 1; values below receive label 0.

Cc1ccc(S(=O)(=O)N(CCCC(=O)N(C)Cc2ccccc2)c2cccc(OCCN3CCOCC3)c2)cc1 [compound 16] | label 1
O=C(c1ccc(F)cc1)N(CC1CCC(N(Cc2ccccn2)C(=O)C(Cl)(Cl)Cl)CC1)c1cccc(OCCN2CCOCC2)c1 (stereo not shown) [compound 174] | label 0
Cc1ccc(C(=O)N(CCCC(=O)N(CCc2ccccc2)Cc2ccccc2)c2cccc(OCCN3CCOCC3)c2)cc1 [compound 3] | label 1
O=C(Nc1ccccc1)N(CC1CCCC(N(Cc2cccc(Cl)c2)C(=O)c2cccc(O)c2)C1)c1cccc(OCCN2CCOCC2)c1 (stereo not shown) [compound 86] | label 0
O=C(CCCC(=O)N(Cc1ccc(F)cc1)c1ccc(OCCN2CCOCC2)cc1)N(CCc1ccccc1)Cc1ccccc1 [compound 192] | label 0
CCN(Cc1ccccc1)C(=O)CCCCN(C(=O)c1ccc(C)cc1)c1cccc(OCCN2CCOCC2)c1 [compound 13] | label 1
O=C(Nc1ccccc1)N(CC1CCCC(N(Cc2cccc(Cl)c2)C(=O)C(c2ccccc2)c2ccccc2)C1)c1cccc(OCCN2CCOCC2)c1 (stereo not shown) [compound 56] | label 1

---

Examples of compounds with documented inhibition follow.
# targetEntity: Motilin Receptor (Oryctolagus cuniculus, UniProt G1T803)
# Construct: The muscle tissue was homogenized in 10 volumes of 50 mM Tris-Cl; from tissue; host or cells: rabbit colon smooth muscle, crude membrane homogenate
# Sequence (G1T803 1-400): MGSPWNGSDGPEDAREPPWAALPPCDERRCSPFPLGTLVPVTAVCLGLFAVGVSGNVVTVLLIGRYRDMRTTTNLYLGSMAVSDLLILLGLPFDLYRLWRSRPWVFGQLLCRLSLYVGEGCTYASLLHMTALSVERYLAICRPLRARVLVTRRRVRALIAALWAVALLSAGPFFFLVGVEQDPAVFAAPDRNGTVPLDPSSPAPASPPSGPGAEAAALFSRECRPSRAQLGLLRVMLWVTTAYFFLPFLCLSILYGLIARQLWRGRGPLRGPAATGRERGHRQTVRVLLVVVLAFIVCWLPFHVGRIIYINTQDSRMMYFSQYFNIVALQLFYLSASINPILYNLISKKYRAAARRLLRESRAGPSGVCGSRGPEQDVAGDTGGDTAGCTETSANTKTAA
# procedureDetails: Motilin receptor binding, rabbit colon membranes, 125I porcine motilin
# Set-up: dose or concentration left out as unconfirmed
# condition: rabbit colon membranes; read-out: Rabbit Colon % Inh
readoutType: inhibition (%)

O=C(c1ccc(F)cc1)N(CC1CCCC(N(Cc2ccccc2)C(=O)C(F)(F)F)C1)c1cccc(OCCN2CCOCC2)c1 (stereo not drawn) | 69
O=C(c1ccc(F)cc1)N(CC1CCCC(N(Cc2cccc(Cl)c2)C(=O)C(F)(F)F)C1)c1cccc(OCCN2CCOCC2)c1 (stereo not drawn) | 70
O=C(c1ccc(F)cc1)N(CC1CCCC(N(Cc2cccc(Cl)c2)C(=O)C(Cl)(Cl)Cl)C1)c1cccc(OCCN2CCOCC2)c1 (stereo not drawn) | 72

---

# targetEntity: Motilin Receptor (Oryctolagus cuniculus, UniProt G1T803)
# Construct: The muscle tissue was homogenized in 10 volumes of 50 mM Tris-Cl; from tissue; host or cells: rabbit colon smooth muscle, crude membrane homogenate
# procedureDetails: Motilin receptor binding, rabbit colon membranes, 125I porcine motilin
# condition: rabbit colon membranes; read-out: Rabbit Colon IC50
# Method: Rabbit colon was removed, dissected free from the mucosa and serosa, and diced into small pieces. […] The pellet was washed twice with 1 ml of cold saline, the supernatant was aspirated, and the pellet at the bottom of the tube counted in a gamma counter. Non-specific binding was determined by the inclusion of 1 mM of unlabeled motilin. IC50 values were determined from Kaleidograph curves.
readoutType: IC50 (nM)

Cc1ccc(OCCN2CCCC2)cc1N(Cc1ccc(F)cc1)C(=O)CCCC(=O)N(CCc1ccccc1)Cc1ccccc1 | 64
O=C(c1ccc(F)cc1)N(CC1CCCC(N(Cc2cccc(Cl)c2)C(=O)C(Cl)(Cl)Cl)C1)c1cccc(OCCN2CCCCC2)c1 (stereo not drawn) | 97
O=C(CCCC(=O)N(Cc1ccc(Cl)cc1)c1cccc(OCCN2CCOCC2)c1)N(CCc1ccccc1)Cc1ccccc1 | 290

---

Examples of molecules with documented pIC50 follow.
# targetEntity: Motilin Receptor (Oryctolagus cuniculus, UniProt G1T803)
# Construct: The muscle tissue was homogenized in 10 volumes of 50 mM Tris-Cl; from tissue; host or cells: rabbit colon smooth muscle, crude membrane homogenate
# procedureDetails: Motilin receptor binding, rabbit colon membranes, 125I porcine motilin
# condition: rabbit colon membranes; read-out: Rabbit Colon IC50
pIC50: −log10 of the molar value.
readoutType: pIC50

O=C(c1ccc(F)cc1)N(CC1CCCC(N(Cc2ccccc2)C(=O)C(Cl)(Cl)Cl)C1)c1cccc(OCCN2CCOCC2)c1 (stereo not drawn) | 6.08
Cc1c(OCCN2CCCC2)cccc1N(Cc1ccc(F)cc1)C(=O)CCCC(=O)N(CCc1ccccc1)Cc1ccccc1 | 8.22
Cc1c(OCCN2CCCC2)cccc1N(CC1CCCC(N(Cc2ccccc2)C(=O)C(Cl)(Cl)Cl)C1)C(=O)c1ccc(F)cc1 (stereo not drawn) | 7.07
O=C(Nc1ccccc1)N(CC1CCCC(N(Cc2ccccc2)C(=O)CCc2ccccc2)C1)c1cccc(OCCN2CCOCC2)c1 (stereo not drawn) | 6.14
COc1cccc(CN(Cc2cccc(Cl)c2)C(=O)CCCC(=O)N(Cc2ccc(F)cc2)c2cccc(OCCN3CCOCC3)c2)c1 | 6.11
O=C(Nc1ccccc1)N(CC1CCCC(N(Cc2ccccc2)C(=O)C(Cl)(Cl)Cl)C1)c1cccc(OCCN2CCCC2)c1 (stereo not drawn) | 7.41
O=C(CCCC(=O)N(Cc1ccc(F)cc1)c1cccc(OCCN2CCCC2)c1)N(CCc1ccccc1)Cc1ccccc1 | 7.85
O=C(CCCC(=O)N(Cc1ccc(F)cc1)c1cccc(OCCN2CCCC2)c1)N(CCc1ccccc1)Cc1cc(Cl)cc(Cl)c1 | 7.00
O=C(Nc1ccccc1)N(CC1CCCC(N(Cc2ccccn2)C(=O)C(Cl)(Cl)Cl)C1)c1cccc(OCCN2CCOCC2)c1 (stereo not drawn) | 6.18
COc1cccc(C(=O)N(Cc2cccc(Cl)c2)C2CCCC(CN(C(=O)Nc3ccccc3)c3cccc(OCCN4CCOCC4)c3)C2)c1 (stereo not drawn) | 6.19
O=C(CCC(=O)N(Cc1cccc(F)c1)c1cccc(OCCN2CCOCC2)c1)N(CCc1ccccc1)Cc1ccccc1 | 6.71
O=C(Nc1ccccc1)N(CC1CCCC(N(Cc2ccccc2)C(=O)c2cccc([N+](=O)[O-])c2)C1)c1cccc(OCCN2CCOCC2)c1 (stereo not drawn) | 5.94
CC(CC(=O)N(CCc1ccccc1)Cc1ccccc1)CC(=O)N(Cc1ccc(F)cc1)c1cccc(OCCN2CCOCC2)c1 (stereo not drawn) | 6.52
O=C(CCCC(=O)N(Cc1ccc(F)cc1)c1cccc(OCCN2CCOCC2)c1)N(CCCc1ccccc1)Cc1ccccc1 | 6.56
O=C(c1ccc(F)cc1)N(CC1CCCC(N(Cc2cccc(Cl)c2)C(=O)C(Cl)(Cl)Cl)C1)c1cccc(OCCN2CCCC2)c1 (stereo not drawn) | 7.24
Cc1c(OCCN2CCCC2)cccc1N(CC1CCCC(N(Cc2cccc(Cl)c2)C(=O)C(Cl)(Cl)Cl)C1)C(=O)c1ccc(F)cc1 (stereo not drawn) | 7.23
O=C(c1ccc(F)cc1)N(CC1CCCC(N(Cc2cccc(Cl)c2)C(=O)C(Cl)(Cl)Cl)C1)c1cccc(OCCN2CCOCC2)c1 (stereo not drawn) | 6.06
O=C(CCCC(=O)N(Cc1ccc(F)cc1)c1cccc(OCCN2CCOCC2)c1)N(CCc1ccccc1)Cc1cccc([N+](=O)[O-])c1 | 7.00
O=C(c1ccc(F)cc1)N(CC1CCCC(N(Cc2ccccc2)C(=O)C(Cl)(Cl)Cl)C1)c1cccc(OCCN2CCCC2)c1 (stereo not drawn) | 7.24
O=C(CCCC(=O)N(Cc1ccc(F)cc1)c1cccc(OCCN2CCCC2)c1)N(CCc1ccccc1)Cc1cccc(C(F)(F)F)c1 | 7.39
O=C(CCCC(=O)N(Cc1ccc(F)cc1)c1cccc(OCCN2CCCC2)c1)N(CCc1ccccn1)Cc1cccc(Cl)c1 | 7.24

Data origin: patent US7112586B2
